Assay: Selectivity ratio of Ki for human carbonic anhydrase 2 to Ki for Caenorhabditis elegans carbonic anhydrase 4b
Parameter measured: Ratio Ki

Consider the following illustrative entries.
- Smiles data: "NNC(=O)c1[nH]c2ccc(S(N)(=O)=O)cc2c1-c1cccc(Br)c1"
  Ratio Ki: 4.03
- Smiles data: "NNC(=O)c1[nH]c2ccc(S(N)(=O)=O)cc2c1-c1cccc(Cl)c1"
  Ratio Ki: 0.91

[a] NNC(=O)c1[nH]c2ccc(S(N)(=O)=O)cc2c1-c1ccc(Cl)cc1
[b] Cc1ccc(-c2c(C(=O)NN)[nH]c3ccc(S(N)(=O)=O)cc23)cc1
Task: Form field 'greater Ratio Ki' accepts a or b ; which applies? Mark your answer with the label of the selected entry.
Result: b
